The origin of these recorded values is patent US20240182444A1.

tested system: SARS-Cov-2 3CLpro (Severe acute respiratory syndrome coronavirus 2)
Construct: 3CLpro was added using a Multidrop Combi
assay notes: SARS-Cov-2 3CLpro protease assay (SAMDI-MS)
Assay type: biochemical
assay setup: 30 mins preincubation, duplex peptide substrates; read-out: SARS-Cov-2 (3CLpro IC50)
pIC50: −log10 of the molar value.
experimental readout: pIC50

[[record]]
molecule = "CC(C)(C)[C@H](NC(=O)C(F)(F)F)C(=O)N1C[C@@H]2[C@H]3C[C@@H]([C@@H]2[C@H]1C(=O)NC(C#N)c1cnn2cc(F)ccc12)[C@H](F)C3 (some centres unmarked)"
tested_system = "SARS-Cov-2 3CLpro (Severe acute respiratory syndrome coronavirus 2)"
experimental_readout = "pIC50"
endpoint_value = "> 7.70"


Q. For SARS-Cov-2 3CLpro (Severe acute respiratory syndrome coronavirus 2), provide pIC50 of CC(C)(C)[C@H](NC(=O)C(F)(F)F)C(=O)N1C[C@H]2[C@@H]([C@H]1C(=O)NC(C#N)c1cccnc1)[C@H]1C=C[C@@H]2C1 (some centres unmarked) please.
A. > 7.70

Q. Given the entry CC(C)(C)[C@H](NC(=O)C(F)(F)F)C(=O)N1C[C@@H]2[C@@H]3CC([C@@H]2[C@H]1C(=O)NC(C#N)c1cnn(-c2ccccc2)c1)[C@H](F)C3 (some centres unmarked) , what pIC50 was observed with SARS-Cov-2 3CLpro (Severe acute respiratory syndrome coronavirus 2)?
A. 5.70 to 6.70

Q. Please state recorded pIC50 (tested on SARS-Cov-2 3CLpro (Severe acute respiratory syndrome coronavirus 2)) of CC(C)(C)[C@H](NC(=O)C(F)(F)F)C(=O)N1C[C@@H]2[C@H]3C[C@@H]([C@@H]2[C@H]1C(=O)NC(C#N)c1cncc2c1OCCO2)[C@H](F)C3 (some centres unmarked)
A. 6.70 to 7.70

Q. Param readout = pIC50; param system = SARS-Cov-2 3CLpro (Severe acute respiratory syndrome coronavirus 2); param query = CC(C)(C)[C@H](NC(=O)C(F)(F)F)C(=O)N1C[C@H]2[C@@H]([C@H]1C(=O)NC(C#N)c1cncc3ccccc13)[C@H]1C=C[C@@H]2C1 (some centres unmarked) ; response: value
A. > 7.70

Q. Param readout= pIC50; system= SARS-Cov-2 3CLpro (Severe acute respiratory syndrome coronavirus 2); entry= CC(C)(C)[C@H](NC(=O)C(F)(F)F)C(=O)N1C[C@@H]2[C@H]3C[C@@H]([C@@H]2[C@H]1C(=O)NC(C#N)c1cncc2ccccc12)[C@H](F)C3 (some centres unmarked) ; returns value.
A. > 7.70

Q. Find pIC50 (SARS-Cov-2 3CLpro (Severe acute respiratory syndrome coronavirus 2)) for the entry N#CC(NC(=O)[C@@H]1[C@@H]2[C@H](CN1C(=O)[C@H](CC1CC1)NC(=O)C(F)(F)F)[C@H]1C[C@@H]2[C@H](F)C1)c1cnn2ccccc12 (some centres unmarked)
A. > 7.70

* * *

The following molecules are listed with their measured pEC50 values.
Tested on: SARS-CoV-2 B.1.1.7 lineage
assay notes: microbe, parasite or virus in culture
Assay type: cell-based
assay setup: Severe acute respiratory syndrome coronavirus 2, 96 h; read-out: A549-dual_ACE2_TMPRSS2 (EC50)
pEC50: −log10 of the molar value.

[[record]]
molecule = "CC(C)(C)[C@H](NC(=O)C(F)(F)F)C(=O)N1C[C@@H]2[C@H]3C[C@@H]([C@@H]2[C@H]1C(=O)NC(C#N)c1cncc(Cl)c1Cl)[C@H](F)C3 (some centres unmarked)"
endpoint_value = "≤ 6.00"

[[record]]
molecule = "CC(C)(C)[C@H](NC(=O)C(F)(F)F)C(=O)N1C[C@H]2[C@@H]([C@H]1C(=O)NC(C#N)c1cccnc1)[C@H]1C=C[C@@H]2C1 (some centres unmarked)"
endpoint_value = "6.00 to 7.00"

[[record]]
molecule = "CC(C)(C)[C@H](NC(=O)C(F)(F)F)C(=O)N1C[C@H]2[C@@H]([C@H]1C(=O)NC1(C#N)CCc3ccncc31)[C@H]1C=C[C@@H]2C1 (some centres unmarked)"
endpoint_value = "≤ 6.00"

[[record]]
molecule = "CC(C)(C)[C@H](NC(=O)C(F)(F)F)C(=O)N1C[C@H]2[C@@H]([C@H]1C(=O)NC(C#N)c1cnc3ccccc3c1)[C@H]1C=C[C@@H]2C1 (some centres unmarked)"
endpoint_value = "6.00 to 7.00"


Now for another entry.
Q. Give the reported pEC50 for CC(C)(C)[C@H](NC(=O)C(F)(F)F)C(=O)N1CCC2(CC2)C[C@H]1C(=O)NC(C#N)c1cnn2ccccc12 (some centres unmarked) (system: SARS-CoV-2 B.1.1.7 lineage).
A. 6.00 to 7.00

* * *

Each entry below carries its reported pIC50.
tested system: SARS-Cov-2 3CLpro (Severe acute respiratory syndrome coronavirus 2)
Construct: 3CLpro was added using a Multidrop Combi
assay notes: SARS-Cov-2 3CLpro protease assay (SAMDI-MS)
Type: biochemical
assay setup: 30 mins preincubation, duplex peptide substrates; read-out: SARS-Cov-2 (3CLpro IC50)
pIC50: −log10 of the molar value.

[[record]]
molecule = "CC(C)(C)[C@H](NC(=O)C(F)(F)F)C(=O)N1C[C@@H]2[C@H]3C[C@@H]([C@@H]2[C@H]1C(=O)NC(C#N)c1cnn2ccccc12)[C@H](F)C3 (stereo partly shown)"
endpoint_value = "> 7.70"

[[record]]
molecule = "CC(C)(C)[C@H](NC(=O)C(F)(F)F)C(=O)N1C[C@@H]2[C@@H]3CC([C@@H]2[C@H]1C(=O)NC(C#N)c1cncc(-c2ccccc2)c1)[C@H](F)C3 (stereo partly shown)"
endpoint_value = "> 7.70"

[[record]]
molecule = "N#CC(NC(=O)C1[C@@H]2[C@H](CN1C(=O)c1cnn(-c3ccccc3C(F)(F)F)c1)[C@H]1C[C@@H]2[C@H](F)C1)c1cncc2ccccc12 (stereo partly shown)"
endpoint_value = "6.70 to 7.70"


Next:
Q. So what does the record say about pIC50 for CC(C)(C)[C@H](NC(=O)C(F)(F)F)C(=O)N1CCC2(CC2)C[C@H]1C(=O)NC(C#N)c1cnn2ccccc12 (stereo partly shown) ?
A. > 7.70
